- System tested: human muscarinic M4 receptor (Homo sapiens)
- Construct: expressed in transfected cells
- Sequence (P08173 whole entry): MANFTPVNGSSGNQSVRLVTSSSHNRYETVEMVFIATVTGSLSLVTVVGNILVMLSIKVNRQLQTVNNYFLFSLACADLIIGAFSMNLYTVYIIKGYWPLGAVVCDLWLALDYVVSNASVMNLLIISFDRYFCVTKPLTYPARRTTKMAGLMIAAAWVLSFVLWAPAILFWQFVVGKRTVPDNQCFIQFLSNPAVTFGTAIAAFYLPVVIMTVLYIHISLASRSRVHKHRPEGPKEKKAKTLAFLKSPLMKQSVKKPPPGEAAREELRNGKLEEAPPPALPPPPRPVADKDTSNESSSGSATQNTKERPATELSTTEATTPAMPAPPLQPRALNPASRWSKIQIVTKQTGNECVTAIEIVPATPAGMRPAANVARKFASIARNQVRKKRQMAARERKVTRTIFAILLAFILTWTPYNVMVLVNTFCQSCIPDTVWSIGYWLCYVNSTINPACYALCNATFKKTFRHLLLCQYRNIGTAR
- Run description: Alphascreen Surefire phospho-ERK1/2 functional assay, M4
- Assay type: cell-based
- Condition context: CHO, read-out: M4 % Emax cf. ACh, CHO cells stably expressing human M4; Emax relative to ACh
Endpoint name: Emax (%)
Report the figure in % without appending any unit label.

Solved cases (5 shown):
Molecule	System tested	Emax, %
CCOC(=O)N[C@H]1CCN(C2CCC3(CC2)C(=O)Nc2ncc(Cl)cc23)C1 (single isomer, unassigned) [2-17 isomer 1]	human muscarinic M4 receptor (Homo sapiens)	18
CCOC(=O)N1CCCN(C2CCC(C#N)(c3ccc(OC)cn3)CC2)CC1 (single isomer, unassigned) [3-19 Isomer 2]	human muscarinic M4 receptor (Homo sapiens)	39
CCOC(=O)N1CCCN(C2CCC(C#N)(c3ccc(Cl)cc3)CC2)CC1 (mixture of isomers) [3-6 mixture of isomers]	human muscarinic M4 receptor (Homo sapiens)	62
CCOC(=O)N1CCCN(C2CCC(C#N)(c3ccccc3C)CC2)CC1 (mixture of isomers) [3-7 mixture of isomers]	human muscarinic M4 receptor (Homo sapiens)	48
Cc1ccc(C2(C#N)CCC(N[C@@H]3CC[C@H](c4nc(C(F)(F)F)no4)C3)CC2)nc1 (single isomer, unassigned) [28-2 Isomer 2]	human muscarinic M4 receptor (Homo sapiens)	55

Then this molecule:
Give the measured Emax for CCOC(=O)N[C@H]1CCN(C2CCC3(CC2)C(=O)Nc2cc(OC)ccc23)C1 (single isomer, unassigned) [2-9 isomer 1]
51
